Biological target: UniProt:Q96DB2
Sequence (Q96DB2 whole entry): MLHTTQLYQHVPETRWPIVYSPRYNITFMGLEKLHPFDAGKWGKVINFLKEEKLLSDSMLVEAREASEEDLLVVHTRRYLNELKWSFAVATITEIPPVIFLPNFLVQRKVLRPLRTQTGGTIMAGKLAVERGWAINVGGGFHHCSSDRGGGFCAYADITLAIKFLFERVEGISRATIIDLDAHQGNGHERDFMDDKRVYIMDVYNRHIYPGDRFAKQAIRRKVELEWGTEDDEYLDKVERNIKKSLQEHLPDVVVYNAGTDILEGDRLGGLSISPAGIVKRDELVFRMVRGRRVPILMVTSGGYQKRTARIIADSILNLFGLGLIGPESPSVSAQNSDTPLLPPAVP
endpoint label: IC50

* Nc1ccccc1NC(=O)c1ccc(CNC(=O)OCc2cccnc2)cc1 [Entinostat] | > 20 µM
